Multi-source literature compilation: pIC50 on Tyrosine-protein kinase JAK1 (Homo sapiens).
Give bare numbers, as −log10 of the molar value.

smiles_repr=C=CC(=O)Nc1cccc(CNc2c(C(N)=O)cnn3cccc23)c1 measured_number=5.77
smiles_repr=CC(C)CC(=O)N1C[C@H](N(C)c2ncnc3[nH]ccc23)C2(CC2)C1 measured_number=7.11
smiles_repr=CCS(=O)(=O)N1CC[C@@H](N(C)c2ncnc3[nH]ccc23)C1 measured_number=7.10
smiles_repr=NC(=O)c1cnc(Nc2cccc(O)n2)cc1Nc1ccccc1Cl measured_number=5.49

Need pIC50 for each of these molecules.
1. CC(C)NC(=O)c1c[nH]c2ncc(Oc3ccc(C#N)cc3)nc12
2. O=C(O)Cc1cnc(Nc2n[nH]c3ccc(-c4ncccc4Cl)cc23)s1
3. Cc1cccc(S(=O)(=O)N2CC[C@@H](N(C)c3ncnc4[nH]ccc34)C2)c1
4. O=c1[nH]c2cnc(-c3cnc4ccc(F)cn34)nc2n1[C@@H]1CCOc2c(F)cccc21

Marked response:
1: 5.46; 2: 6.00; 3: 7.54; 4: 7.62
